Reference source for all entries: paper PMC9482650

Kindly state pKd for each of the entries shown.
biological target: DLG2_2, Q15700; assay: holdup assay; set-up: key: below the threshold = too weak to quantify, mostly under pKd 3.1 to 4; details: plain residues with an end cap or a label only (N-terminal biotin on a linker: ttds)
Sequence (Q15700 189-283): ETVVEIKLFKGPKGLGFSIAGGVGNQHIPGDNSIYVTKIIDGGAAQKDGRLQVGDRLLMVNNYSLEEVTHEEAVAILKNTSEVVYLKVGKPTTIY
// return a plain number; no unit text

The binder identified as LCALPKVTTV [AGMAT, Q9BSE5] registered its pKd at 5.35

The binder identified as LDSQIQETSI [MAP4, P27816] registered its pKd at 3.9

The binder identified as QFQYAKESYI [TAGAP, Q8N103] registered its pKd at 4.16

The binder identified as PKRPFVESNV [TANC2, Q9HCD6] registered its pKd at 4.33
